We begin with a simple list: items and their reported viability at 24 h, 6.25 ug/mL.
- test_protocol: Cytotoxicity against mouse NCTC clone 929 cells assessed as viable cells at 6.25 ug/mL incubated for 24 hrs by CCK-8 assay relative to control
- Assay type: toxicity, cell-based
- reported_conditions: NCTC clone 929 (L929) cells, at 6.25 µg/mL, read-out: Activity

smiles_string | viability at 24 h, 6.25 ug/mL
CC(C)=CCN1CCCc2cc(OCCCCCCCCNC(=N)N)ccc21 | 91.2%
CCCCCCCCCN1CCCc2cc(OCCCCNC(=N)N)ccc21 | 92.1%

---

- Tested on: Staphylococcus aureus
- test_protocol: Antimicrobial activity against Staphylococcus aureus ATCC29213 assessed as bacterial growth inhibition incubated for 24 hrs by Muller Hinton broth based dilution assay
- Assay type: functional
MIC strictly less than 20 µg/mL = condition met. Otherwise condition not met.

molecule | tested_system | label
CCCCCCCN1CCCc2cc(OCCCCCCCCBr)ccc21 | Staphylococcus aureus | condition not met
CCCCCNCCCCOc1ccc2c(c1)CCCN2CC=C(C)C | Staphylococcus aureus | condition met
CC(C)=CCN1CCCc2cc(OCCCCBr)ccc21 | Staphylococcus aureus | condition not met
FC(F)(F)CCCN1CCCc2cc(OCCCCBr)ccc21 | Staphylococcus aureus | condition not met
Oc1ccc2c(c1)CCCN2CCCC(F)(F)F | Staphylococcus aureus | condition not met
CC(C)=CCN1CCCc2cc(O)ccc21 | Staphylococcus aureus | condition not met
CCCCCCCCCN1CCCc2cc(OCC(=O)N[C@@H](CCCNC(=N)N)C(=O)N[C@@H](CCCNC(=N)N)C(N)=O)ccc21 | Staphylococcus aureus | condition met
CC(C)=CCN1CCCc2cc(OCCCCN3CCSCC3)ccc21 | Staphylococcus aureus | condition not met
O=C(O)c1cn(C2CC2)c2cc(N3CCNCC3)c(F)cc2c1=O [CIPROFLOXACIN] | Staphylococcus aureus | condition met
CC(C)=CCN1CCCc2cc(OCCCCN(C)C)ccc21 | Staphylococcus aureus | condition not met
CCCCCCCCCN1CCCc2cc(OCCCCCCCCNC(=N)N)ccc21 | Staphylococcus aureus | condition met
